Here, each record is paired with measured Percentage of larval survival data.
system: Macrosiphum euphorbiae larvae; assay: Effects on larval survival (artificial medium feeding); assay type: in vivo; settings: 0.002 mM in artificial medium, after 16 days of treatment

[
  {
    "compound": "C[C@H]1CC[C@@H]2[C@@H](C)[C@H]3[C@H](C[C@H]4[C@@H]5CC=C6C[C@@H](O[C@@H]7O[C@H](CO)[C@H](O[C@@H]8O[C@@H](C)[C@H](O)[C@@H](O)[C@H]8O)[C@H](O)[C@@H]7O[C@@H]7O[C@@H](C)[C@@H](O)[C@@H](O)[C@H]7O)CC[C@]6(C)[C@H]5CC[C@]34C)N2C1 [Chaconine, chaconine, reference compound]",
    "unit_string": "a %",
    "Percentage of larval survival": 72
  },
  {
    "compound": "C[C@H]1CCC2[C@@H](C)C3C(CC4C5CC=C6C[C@@H](OCCCn7cc(CO[C@@H]8OC(CO)[C@@H](O)C(O)C8O)nn7)CC[C@]6(C)C5CC[C@@]43C)N2C1 (some centres unmarked) [Compound 100]",
    "unit_string": "a %",
    "Percentage of larval survival": 76
  }
]
